Ref: the NIST ThermoML archive (doi:10.1021/je200434a)

I'd appreciate it if you could supply mass density values for the items below.
conditions: 344.15 K; 101.33 kPa; Liquid; Vibrating tube method
Respond numerically; units are kg/m3 and should not be typed.

Q: Name the recorded mass density for CCCCOS(=O)(=O)[O-].CC[n+]1ccn(C)c1 [3-ethyl-1-methylimidazolium butyl sulfate] .
Ans: 1145.72

Q: # repeat for CCCCCCCCOS(=O)(=O)[O-].CCn1cc[n+](C)c1 [1-ethyl-3-methylimidazolium octyl sulfate]
Ans: 1065.51

Q: # repeat for CCn1cc[n+](C)c1.O=S(=O)([O-])O [1-ethyl-3-methylimidazolium hydrogen sulfate]
Ans: 1337.94

Q: # repeat for CCCCCCOS(=O)(=O)[O-].CC[n+]1ccn(C)c1 [3-ethyl-1-methyl-1H-imidazolium hexyl sulfate]
Ans: 1100.21

Q: # repeat for CCn1cc[n+](C)c1.COS(=O)(=O)[O-] [1-ethyl-3-methylimidazolium methylsulfate]
Ans: 1255.15
